# pIC50 per record follows
Measurement Target: FGFR2 (Homo sapiens, UniProt P21802, K310R/N549K)
Construct: in FGFR aberrations of AN3CA (FGFR2/k310R, N549K)
Sequence (P21802 22-821 K310R/N549K): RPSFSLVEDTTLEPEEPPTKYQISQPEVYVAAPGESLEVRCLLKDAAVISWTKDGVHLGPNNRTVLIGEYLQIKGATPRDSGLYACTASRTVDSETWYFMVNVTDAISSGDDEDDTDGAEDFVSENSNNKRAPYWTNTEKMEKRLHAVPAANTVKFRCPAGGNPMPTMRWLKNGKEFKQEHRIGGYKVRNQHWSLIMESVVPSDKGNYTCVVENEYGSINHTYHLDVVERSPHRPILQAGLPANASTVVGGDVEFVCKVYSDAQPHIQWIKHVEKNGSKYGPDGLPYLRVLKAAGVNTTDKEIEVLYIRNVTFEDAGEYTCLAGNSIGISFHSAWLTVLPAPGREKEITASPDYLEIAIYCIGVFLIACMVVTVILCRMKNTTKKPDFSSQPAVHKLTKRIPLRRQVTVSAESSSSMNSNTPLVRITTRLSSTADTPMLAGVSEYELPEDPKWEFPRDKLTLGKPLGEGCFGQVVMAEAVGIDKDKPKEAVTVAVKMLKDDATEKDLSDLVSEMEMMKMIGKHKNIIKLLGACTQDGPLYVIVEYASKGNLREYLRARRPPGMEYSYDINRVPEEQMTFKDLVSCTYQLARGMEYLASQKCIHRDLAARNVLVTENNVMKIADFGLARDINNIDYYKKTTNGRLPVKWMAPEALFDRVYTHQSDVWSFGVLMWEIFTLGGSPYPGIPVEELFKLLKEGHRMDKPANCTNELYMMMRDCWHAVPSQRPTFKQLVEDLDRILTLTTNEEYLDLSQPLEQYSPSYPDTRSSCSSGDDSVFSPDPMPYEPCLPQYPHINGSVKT
Procedure Summary: pERK potency assay (In Cell ELISA), AN3CA cells
Experimental Conditions: pERK, AN3CA (FGFR2/k310R, N549K) cells, 3 hours
pIC50: −log10 of the molar value.

Molecule: C=CC(=O)N1CCC2(CC=C(c3c(-c4ncc(C(F)F)cn4)c4c(N)ncnc4n3C)CC2)CC1 [Example 56]
pIC50: ≥ 9.00
--
Molecule: C=CC(=O)N1CCC2(CC=C(c3c(-c4ccncn4)c4c(N)ncnc4n3C)CC2)CC1 [Example 60]
pIC50: 7.52 to 8.00
--
Molecule: C=CC(=O)N1CCC2(CC=C(c3c(-c4ncccn4)c4c(N)ncnc4n3CCO)CC2)CC1 [Example 54]
pIC50: 8.00 to 9.00
--
Molecule: C=CC(=O)N1CCC2(CC=C(c3c(-c4ncccn4)c4c(N)ncnc4n3C)CC2)CC1(C)C (stereo not shown) [Example 34]
pIC50: 8.00 to 9.00
--
Molecule: C=CC(=O)N1CCC2(CC=C(c3c(-c4cncnc4)c4c(N)ncnc4n3C)CC2)CC1 [Example 32]
pIC50: 7.00 to 7.52
--
Molecule: C=CC(=O)N1CCC2(CC=C(c3c(-c4ccc(OCCN5CCCC5)cc4)c4c(N)ncnc4n3C)CC2)CC1 [Example 20]
pIC50: 7.00 to 7.52
--
Molecule: C=CC(=O)N1CCC2(CC=C(c3c(-c4ccc(OC(F)F)nc4)c4c(N)ncnc4n3C)CC2)CC1 [Example 29]
pIC50: ≥ 9.00
--
Molecule: C=CC(=O)NC1CC2(CC=C(c3c(-c4ccc(OC)cc4)c4c(N)ncnc4n3C)CC2)C1 (stereo not shown) [Example 7]
pIC50: 7.52 to 8.00
--
Molecule: C=CC(=O)N1CCC2(CC=C(c3c(-c4ccc(Oc5nccc(C)n5)c(F)c4)c4c(N)ncnc4n3C)CC2)CC1 [Example 62]
pIC50: 8.00 to 9.00
--
Molecule: C=CC(=O)N1CCC2(CC=C(c3c(-c4ncc(OC5CC5)cn4)c4c(N)ncnc4n3C)CC2)CC1 [Example 50]
pIC50: ≥ 9.00
--
Molecule: C=CC(=O)N1CCC2(CC=C(c3c(-c4ncc(C5CC5)cn4)c4c(N)ncnc4n3C)CC2)CC1 [Example 45]
pIC50: ≥ 9.00
--
Molecule: C=CC(=O)N1CCC2(CCC(c3c(-c4ccc(Oc5ncccn5)cc4)c4c(N)ncnc4n3C)CC2)CC1 [Example 6]
pIC50: < 7.00
--
Molecule: C=CC(=O)N1CCC2(CC=C(c3c(-c4cnccn4)c4c(N)ncnc4n3C)CC2)CC1 [Example 59]
pIC50: 8.00 to 9.00
--
Molecule: C=CC(=O)N1CCC2(CC=C(c3c(-c4ccnn4C)c4c(N)ncnc4n3C)CC2)CC1 [Example 13]
pIC50: < 7.00
--
Molecule: C=CC(=O)N1CCC2(CC=C(c3c(C#N)c4c(N)ncnc4n3C)CC2)CC1 [Example 57]
pIC50: 8.00 to 9.00
--
Molecule: C=CC(=O)N1CCC2(CC=C(c3c(-c4ccc(OC)nc4)c4c(N)ncnc4n3C)CC2)CC1(C)C (stereo not shown) [Example 40]
pIC50: 8.00 to 9.00
--
Molecule: C=CC(=O)N1CCC2(CC=C(c3c(-c4ccc(OC5CCC5)nc4)c4c(N)ncnc4n3C)CC2)CC1 [Example 26]
pIC50: 8.00 to 9.00
--
Molecule: C=CC(=O)N1CCC2(CC=C(c3c(-c4nccc(C)n4)c4c(N)ncnc4n3C)CC2)CC1 [Example 35]
pIC50: 7.52 to 8.00
--
Molecule: C=CC(=O)N1CCC2(CC=C(c3c(-c4ncc(OC5CCOC5)cn4)c4c(N)ncnc4n3C)CC2)CC1 (stereo not shown) [Example 47]
pIC50: ≥ 9.00
--
Molecule: C=CC(=O)N1CCC2(CC=C(c3c(-c4cnc(OC5CC5)c(F)c4)c4c(N)ncnc4n3C)CC2)CC1 [Example 23]
pIC50: 8.00 to 9.00
--
Molecule: C=CC(=O)N1CCC2(CC=C(c3c(-c4ccc(C#N)nc4)c4c(N)ncnc4n3C(F)F)CC2)CC1 [Example 37]
pIC50: 7.52 to 8.00
--
Molecule: C=CC(=O)N1CCC2(CC=C(c3c(-c4ccc(OC)nc4)c4c(N)ncnc4n3C)CC2)CC1C (stereo not shown) [Example 39]
pIC50: 8.00 to 9.00
